molecular target: GalNAc(b1-3)Gal(a1-4)Gal(b1-4)GlcNAc; assay: glycan array binding signal (z-score within array); higher = stronger binding; details: glycan notation: IUPAC condensed, linker removed
The full list was thinned out, with the strongest signals kept by preference.

# BINDER, glycan array binding signal (z-score)
data = [
    ("RNase 1 (Homo sapiens) (protein) KESRAKKFQRQHMDSDSSPSSSSTYCNQMMRRRNMTQGRCKPVNTFVHEPLVDVQNVCFQEKVTCKNGQGNCYKSNSSMHITDCRLTNGSRYPNCAYRTSPKERHIIVACEGSPYVPVHFDASVEDST", 0.455),
    ("Flo11 (Saccharomyces cerevisiae), Q1H8S8 (protein) MGSSHHHHHHSSGLVPRGSHMFPTALVPRGSSEGTSCNSIVNGCPNLDFNWHMDQQNIMQYTLDVTSVSWVQDNTYQITIHVKGKENIDLKYLWSLKIIGVTGPKGTVQLYGYNENTYLIDNPTDFTATFEVYATQDVNSCQVWMPNFQIQFEYLQGSAAQYASSWQWGTTSFDLSTGCNNYDNQGHSQTDFPGFYWNIDCDNNCGGTKSS", 4.27),
    ("AT5G01260(PC)(40) (Arabidopsis thaliana), Q9LFB0 (protein) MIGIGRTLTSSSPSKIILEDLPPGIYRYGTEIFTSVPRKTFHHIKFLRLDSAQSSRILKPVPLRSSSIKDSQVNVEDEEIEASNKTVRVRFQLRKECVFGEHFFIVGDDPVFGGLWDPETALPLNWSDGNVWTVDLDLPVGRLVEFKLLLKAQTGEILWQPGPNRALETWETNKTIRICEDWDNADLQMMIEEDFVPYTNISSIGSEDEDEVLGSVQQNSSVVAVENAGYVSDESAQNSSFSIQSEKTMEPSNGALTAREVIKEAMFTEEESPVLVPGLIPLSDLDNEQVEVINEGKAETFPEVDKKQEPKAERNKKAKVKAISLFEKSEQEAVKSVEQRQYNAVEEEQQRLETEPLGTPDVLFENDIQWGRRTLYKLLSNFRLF", 2.47),
]

# credit: the supplement of paper PMC8728848
